src = ChEMBL document CHEMBL1201862

List of GI50 values.
# Tested on: SW-620
# assayRemarks: NCI tumour cell line growth inhibition, 48 h
The source made the active and inactive calls. Rule as the data show it: active = GI50 up to about 1.1 µM and inactive = higher.
reportedProperty: GI50

molecule=COC(=O)[C@@H]1CN(C(=O)c2ccccc2)C(=O)N1C(=O)OCc1ccccc1 systemname=SW-620 reportedproperty=GI50 testvalue="> 100 µM (inactive)"
molecule=CCN(CC)c1c(C(=O)/C=C/c2ccc(Cl)cc2)c(-c2ccccc2)nn(C)c1=O systemname=SW-620 reportedproperty=GI50 testvalue="2.16 µM (inactive)"
molecule="COC(=O)C1(NC(=O)C(CC(=O)OCc2ccccc2)NC(=O)OCc2ccccc2)CCCCCC1 (centres undefined)" systemname=SW-620 reportedproperty=GI50 testvalue="42.8 µM (inactive)"
molecule=c1ccc(CN2CCC(=NN3CCCCC3)CC2)cc1 systemname=SW-620 reportedproperty=GI50 testvalue="> 100 µM (inactive)"
molecule="O=C1[C@H]2ON(c3ccccc3)C(c3ccccc3F)[C@H]2C(=O)N1c1ccc(Cc2ccc(N3C(=O)[C@@H]4ON(c5ccccc5)C(c5ccccc5F)[C@@H]4C3=O)cc2)cc1 (some centres undefined)" systemname=SW-620 reportedproperty=GI50 testvalue="> 100 µM (inactive)"
molecule=Cc1cc2c(cc1Cl)SSc1cc(Cl)c(C)cc1S(=O)(=O)Nc1nc(N)nn1C(O)n1nc(N)nc1NS2(=O)=O systemname=SW-620 reportedproperty=GI50 testvalue="> 10 µM (inactive)"
molecule=Cn1c(S)nnc1CNc1ccc(-c2nnc(S)n2C)cc1 systemname=SW-620 reportedproperty=GI50 testvalue="> 100 µM (inactive)"
molecule=CC(C)(C)Cc1cc(O)ccc1O systemname=SW-620 reportedproperty=GI50 testvalue="61.9 µM (inactive)"
molecule="COc1ccc(C2CC(c3c(C)nn(-c4ccccc4)c3-c3ccc(C)cc3O)=NN2c2ccccc2)cc1 (centres undefined)" systemname=SW-620 reportedproperty=GI50 testvalue="20.5 µM (inactive)"

---

# Tested on: NCI-H522
# assayRemarks: NCI tumour cell line growth inhibition, 48 h
The source made the active and inactive calls. Rule as the data show it: active = GI50 up to about 1.1 µM and inactive = higher.
Outcomes: TRUE = active, FALSE = inactive

compound=Oc1c(CN2CCN(c3ccccc3)CC2)cc(Br)c2cccnc12 classlabel=TRUE
compound=CC(C)(C)Cc1cc(O)ccc1O classlabel=FALSE
compound=Cc1oc2nc1C(=O)NCc1nc(cs1)C(=O)N[C@H](C(C)C)c1nc(cs1)C(=O)N[C@H]2C classlabel=FALSE
compound=N#Cc1c(N2CCCC2)ncn(-c2ccccc2)c1=S classlabel=FALSE
compound=COc1ccc(/C=C2\C(=O)N(C)C(=O)c3cc(OC)c(OC)cc32)cc1OC classlabel=FALSE
compound=COc1cc(NS(C)(=O)=O)ccc1NCc1c2ccccc2nc2ccccc12 classlabel=FALSE
compound=O=[N+]([O-])C(/C=C(\Cl)[N+](=O)[O-])=C(N1CCCCC1)N1CCCCC1 classlabel=FALSE
compound=c1ccc2c(c1)Nc1ccccc1[P+]21c2ccccc2Nc2ccccc21 classlabel=TRUE
compound="COc1ccc2c(c1)CCc1cnn(C3OC(COC(C)=O)C(OC(C)=O)C(OC(C)=O)C3OC(C)=O)c1-2 (stereo not given)" classlabel=FALSE
compound=O=[N+]([O-])C(C(Cl)=C(Cl)Cl)=C(N(Cc1ccccc1)Cc1ccccc1)N(Cc1ccccc1)Cc1ccccc1 classlabel=FALSE

---

# System: SR
# assayRemarks: NCI tumour cell line growth inhibition, 48 h
Activity calls are given as the source filed them. Cut-off read from the data, not from the text of the source: active = GI50 up to about 1.1 µM and inactive = higher.
reportedProperty: GI50

compound=O=C(NN1C(=O)C=CC1=O)c1ccccc1Nc1ccccc1C(=O)NN1C(=O)C=CC1=O reportedproperty=GI50 testvalue="> 100 µM (inactive)"
compound=Cc1ccc2[nH]c(=O)c(-c3cnc(O)nn3)c(O)c2c1 reportedproperty=GI50 testvalue="> 100 µM (inactive)"
compound=Nc1ccc(Oc2ccc(C34CC5CC6C3CC3CC4C(C5)C6(c4ccc(Oc5ccc(N)c(O)c5)cc4)C3)cc2)cc1O reportedproperty=GI50 testvalue="1.62 µM (inactive)"
compound="COc1oc(C2C/C(=C/C(C)=C/C(C)=C/C(C)=C/c3ccc([N+](=O)[O-])cc3)CO2)c(C)c(=O)c1C (configuration not stated)" reportedproperty=GI50 testvalue="< 0.01 µM (active)"
compound="NC(CP(=O)(O)O)C(=O)O (configuration not stated)" reportedproperty=GI50 testvalue="> 100 µM (inactive)"
compound="C#CCNC(=O)NC(CCCNC(=O)OCc1ccccc1)C(=O)OCc1ccccc1 (configuration not stated)" reportedproperty=GI50 testvalue="> 100 µM (inactive)"
compound=COc1ccc(/C=C2\N=C(N3CCOCC3)NC2=O)cc1 reportedproperty=GI50 testvalue="> 100 µM (inactive)"
compound=CCOC(=O)/C=C/c1ccccn1 reportedproperty=GI50 testvalue="> 100 µM (inactive)"
compound="OCC(S)CS.[Bi] (configuration not stated)" reportedproperty=GI50 testvalue="4.06 µM (inactive)"
compound=O=[N+]([O-])CCc1cccc([N+](=O)[O-])c1 reportedproperty=GI50 testvalue="> 100 µM (inactive)"
compound="O=C1c2cn[nH]c2N=C(Nc2ccccc2)C1/N=C/c1ccc([N+](=O)[O-])cc1 (configuration not stated)" reportedproperty=GI50 testvalue="> 10 µM (inactive)"
compound=Cc1ccc(-c2c(-c3ccccc3)[nH]c(C)c2C(=O)ONC(=O)c2ccccc2)cc1 reportedproperty=GI50 testvalue="1.66 µM (inactive)"
compound="CNC(=O)C(NC(=O)[C@H](CC(C)C)NC(=O)[C@@H](S)CCN1C(=O)N(C)C(C)(C)C1=O)C(C)(C)C (some centres not stated)" reportedproperty=GI50 testvalue="> 100 µM (inactive)"
compound=Cc1cc(NS(=O)(=O)c2ccc(Nc3c4ccccc4nc4c(C(=O)NCCN(C)C)ccc(Cl)c34)cc2)no1 reportedproperty=GI50 testvalue="0.37 µM (active)"
compound=Clc1cccc(Cl)c1C(Nc1nncs1)Nc1nncs1 reportedproperty=GI50 testvalue="4.84 µM (inactive)"
compound="O=C(O)C(CSC(c1ccccc1)(c1ccccc1)c1ccccc1)/N=C/c1cccs1 (configuration not stated)" reportedproperty=GI50 testvalue="4.42 µM (inactive)"
compound=C=C=C(Sc1ccccc1)C(C)(C)OC(C)=O reportedproperty=GI50 testvalue="27.9 µM (inactive)"
compound=COc1ccc2cc(C(=O)NCCCNC(=O)c3ccc4cc(OC)ccc4c3)ccc2c1 reportedproperty=GI50 testvalue="> 100 µM (inactive)"
compound=S=C(NCc1ccccc1)N/N=C/c1ccccn1 reportedproperty=GI50 testvalue="0.29 µM (active)"
compound=CC(=O)N(N=O)c1ccc(N(N=O)C(C)=O)cc1 reportedproperty=GI50 testvalue="> 100 µM (inactive)"
compound=CCn1c(-c2ccc(OC(C)=O)cc2)c(C)c2cc(OC(C)=O)ccc21 reportedproperty=GI50 testvalue="5.27 µM (inactive)"
compound=O=C(Nc1nccs1)c1c(O)nc2sccn2c1=O reportedproperty=GI50 testvalue="> 10 µM (inactive)"

---

Measured GI50 of individual entries
# System: HT-29
# assayRemarks: NCI tumour cell line growth inhibition, 48 h
The source made the active and inactive calls. No stated cut-off is given here; in the data, active = GI50 up to about 1.1 µM and inactive = higher.
reportedProperty: GI50

molecule=CC(=O)N1CC(C)(C)c2c1cc(C)c(O)c2C testvalue="> 100 µM (inactive)"
molecule=CC1=C(/C(C)=N/NC(=O)c2ccccc2O)C(C)C(/C(C)=N/NC(=O)c2ccccc2O)=C(C)N1 testvalue="42.3 µM (inactive)"
molecule="O=C(O)C(CSC(c1ccccc1)(c1ccccc1)c1ccccc1)/N=C/c1cccs1 (stereo not given)" testvalue="2.96 µM (inactive)"
molecule=NS(=O)(=O)c1nn2c(Br)c(-c3ccccc3)nc2s1 testvalue="2.49 µM (inactive)"
molecule=Clc1ccccc1CN1COc2c(cc(Cl)c3cccnc23)C1 testvalue="19.2 µM (inactive)"
molecule="COc1ccc(CC2c3cc4c(cc3CCN2C)OCO4)c(C=O)c1OC (stereo not given)" testvalue="> 100 µM (inactive)"
molecule=CC(=O)Nc1cc(CN2CCCCC2)c(O)c2ncccc12 testvalue="44.5 µM (inactive)"
molecule=Cc1ccc(-c2n[nH]c(=O)n2N)cc1 testvalue="> 100 µM (inactive)"
molecule="NC(Cc1ccccc1)C(=O)OCN1C(=O)C2C3C=CC(C2C1=O)C1C2C(=O)N(COC(=O)C(N)Cc4ccccc4)C(=O)C2C31 (stereo not given)" testvalue="33.2 µM (inactive)"
molecule=O=C(Nc1ccc(Cl)cc1C(F)(F)F)C(=O)Nn1c(S)nc2ccccc2c1=O testvalue="> 100 µM (inactive)"

---

# Test system: NCI-H23
# assayRemarks: NCI tumour cell line growth inhibition, 48 h
Activity calls are given as the source filed them. Rule as the data show it: active = GI50 up to about 1.1 µM and inactive = higher.
Outcome codes: active, inactive

compound=CCOc1cc2c(cnc3c4cc(OC)c(OC)cc4ccc23)cc1OC classlabel=inactive
compound="CCOP(=O)(OCC)C(c1ccc(F)cc1)N(C(=O)NC(F)(F)F)c1ccc(OC)cc1 (stereo not drawn)" classlabel=inactive
compound=COC(=O)/C=C1\C(=O)Nc2ccc(Br)cc21 classlabel=inactive
compound=Clc1ccccc1CN1COc2c(cc(Cl)c3cccnc23)C1 classlabel=inactive
compound=Cc1ccc2c(c1C)C(=O)/C(=C/c1cccc(C)c1C(=O)O)C2 classlabel=inactive
compound="CC1CSC(=S)N1C(=O)N1C(=S)SCC1C (stereo not drawn)" classlabel=inactive
compound=CC(C)(C)Cc1cc(O)ccc1O classlabel=inactive
compound=COc1ccc(/C=C2\CN(C)C/C(=C\c3ccc(OC)c(OC)c3OC)C2=O)c(OC)c1OC classlabel=active
compound=COc1ccc(/C=C2\N=C(N3CCOCC3)NC2=O)cc1 classlabel=inactive
compound=Nc1nc(NCc2ccccc2)cc(NCc2ccccc2)n1 classlabel=inactive
compound=Cc1cc2[nH]c3c(C#N)c(-c4ccccc4)c(/C=N/c4ccc(F)cc4)c(=O)n3c2cc1C classlabel=inactive
compound=O=C(Nc1ccccn1)c1cc2c(cc1Cl)Sc1nccn1S2(=O)=O classlabel=inactive
compound="CC(=O)OCC(OC(C)=O)C(OC(C)=O)C(OC(C)=O)C(=O)CNn1c(-c2ccccc2)nc2ccc(Br)cc2c1=O (stereo not drawn)" classlabel=inactive
compound=O=c1[nH]c2ccc(CC(=S)N3CCOCC3)cc2o1 classlabel=inactive
compound=CC12c3c4ccc(C=O)c3Oc3ccc(C=O)c(c31)Oc1ccc(C=O)c(c12)O4 classlabel=inactive
compound="Cc1ccc2c(c1)C(=O)C(Cc1ccccc1C(=O)O)C2 (stereo not drawn)" classlabel=inactive
compound=COc1ccc(-c2cc(N3CCN(c4ccccc4)CC3)c(C#N)c(=O)o2)cc1 classlabel=inactive
compound=NC(=O)CN(CC(N)=O)C(N)=O classlabel=inactive
compound=C#CCOC(=O)c1ccccc1O classlabel=inactive
compound="C=CCOc1ccc(C2(O)c3ccccc3C3=NCCCN32)cc1 (stereo not drawn)" classlabel=inactive
compound="O=C1NC(O)n2c(=O)[nH]c(=O)n21 (stereo not drawn)" classlabel=inactive
compound="O=C(O)C(CSC(c1ccccc1)(c1ccccc1)c1ccccc1)/N=C/c1cccs1 (stereo not drawn)" classlabel=inactive
compound="CC1C(c2ccccc2O)c2cc3c(cc2OC1N1CCOCC1)OCO3 (stereo not drawn)" classlabel=inactive
compound=CCOC(=O)/C=C/c1ccccn1 classlabel=inactive
compound=Cc1ccc(NC(=O)/C(Cc2cc(=O)oc3cc(O)ccc23)=N\NC(=O)C[N+](C)(C)C)cc1C classlabel=inactive
compound=O=C(Nc1nccs1)c1c(O)nc2sccn2c1=O classlabel=inactive
compound="COc1ccccc1C1c2cc3c(cc2OC(O)(CO)C1C(=O)O)OCO3.COc1ccccc1C1c2cc3c(cc2OC2(O)COC(=O)C12)OCO3 (stereo not drawn)" classlabel=inactive
compound="O=[N+]([O-])c1ccc(Cl)cc1C1ON=C(c2ccccc2)N1C12CC3CC(CC(C3)C1)C2 (stereo not drawn)" classlabel=inactive
compound="COc1cc([C@@H]2c3cc4c(cc3[C@@H](OC3OC5CO[C@@H](c6cccs6)OC5C(O)C3O)[C@H]3COC(=O)[C@H]23)OCO4)cc(OC)c1O (stereo partly drawn)" classlabel=active
compound=Cc1nc(Nc2ccccc2)sc1C(=O)CC(=O)C(=O)Nc1c(C(C)C)cccc1C(C)C classlabel=inactive
compound=COc1c(NC(C)=O)c2ccccc2c2ccccc12 classlabel=inactive
compound="COc1ccccc1CC1(O)OC(=O)c2ccccc21 (stereo not drawn)" classlabel=inactive
compound=CN(C)CCn1nc(N)c2nc3cc(C(F)(F)F)ccc3nc21 classlabel=inactive
compound=CCOC(=O)c1cc2c(C(=O)c3ccc([N+](=O)[O-])cc3)c(C(C)=O)ccc2[nH]1 classlabel=inactive
compound=COC(=O)[C@H](C)N1C(=O)N[C@@H](C(C)C)C1=O classlabel=inactive
compound=CCOP(=O)(OCC)C(C)(C)OC(=O)NC#N classlabel=inactive
compound=CN(CCc1ccc(Cl)c(Cl)c1)CCN(C)CCN1CCCC1 classlabel=inactive
compound="CC(=O)N1c2ccccc2C2=CC3C4C(=O)N(c5ccccc5)C(=O)C4C21C1C(=O)N(c2ccccc2)C(=O)C31 (stereo not drawn)" classlabel=inactive
compound="Cc1cccc(C)c1NC(=O)CCCC(=O)C1CCC/C1=N\\NC(=O)C(=O)NN (stereo not drawn)" classlabel=inactive
compound="O/N=C1/C(=C/c2ccc(Br)cc2)CCCC1C(NO)c1ccc(Br)cc1 (stereo not drawn)" classlabel=inactive
compound=Cn1c(=O)nc2n(-c3cccc(Cl)c3)c3ccccc3nc-2c1=O classlabel=inactive
compound=O=C(CCc1ccc(O)cc1)NCCc1cccc(O)c1 classlabel=inactive
compound="CCOC(=O)n1cncc1CC(NC(=O)Cc1c(C(=O)C=C(C)C)[nH]c2ccccc12)C(=O)OC (stereo not drawn)" classlabel=inactive
